biological target: Prostaglandin F2-alpha receptor (Homo sapiens, UniProt P43088); assay: In Vitro Test of Inhibition of Human FP Receptor Activity : For the characterization of test substances in respect of FP antagonism, PGF2α-induced calcium flux in FP-expressing CHEM1 cells (Millipore, HTS093C) was used.3000 cells in 25 μl of full medium [DMEM F12, 10% FCS, 1.35 mM sodium pyruvate, 20 mM HEPES, 4 mM GlutaMAX, 2% sodium bicarbonate, 1% Pen/Strep, 1% 100× non-essential amino acids] are sown per well of a 384 multititer plate (from Greiner, TC plate, black with clear base) and incubated at 37° C./5% CO2 for 24 hours. Prior to the measurement, the medium is replaced by 30 μl of Fluo-8 AM loading buffer [calcium-free Tyrode (130 mM NaCl, 5 mM KCl, 20 mM HEPES, 1 mM MgCl2, 4.8 mM NaHCO3, pH 7.4), 2 mM CaCl2, 1× SmartBlock (from CANDOR Bioscience GmbH), 4.5 mM Probenecid, 5 μM Fluo-8 AM, 0.016% Pluronic, 0.04% Brilliant black] and incubated at 37° C./5% CO2 for 30 minutes. The test substance is prepared in DMSO in various concentrations as a dose-response curve (starting concentration 10 mM, dilution factor 3.16) and prediluted 1:50 with calcium-free Tyrode/2 mM CaCl2. 10 μl of the prediluted substance solution are added to the Fluo-8-laden cells and incubated at 37° C./5% CO2 for 10 minutes. The FP receptor is activated by adding 20 μl of 3 nM (final concentration) PGF2α in calcium-free Tyrode/2 mM CaCl2/0.04% Brilliant black, and the calcium flux is determined by measuring the fluorescence at ex. 470 nm/em. 525 nm in a fluorescence measuring instrument (FLIPR Tetra, Molecular Devices) for 120 seconds.; assay type: cell-based
Sequence (P43088 whole entry): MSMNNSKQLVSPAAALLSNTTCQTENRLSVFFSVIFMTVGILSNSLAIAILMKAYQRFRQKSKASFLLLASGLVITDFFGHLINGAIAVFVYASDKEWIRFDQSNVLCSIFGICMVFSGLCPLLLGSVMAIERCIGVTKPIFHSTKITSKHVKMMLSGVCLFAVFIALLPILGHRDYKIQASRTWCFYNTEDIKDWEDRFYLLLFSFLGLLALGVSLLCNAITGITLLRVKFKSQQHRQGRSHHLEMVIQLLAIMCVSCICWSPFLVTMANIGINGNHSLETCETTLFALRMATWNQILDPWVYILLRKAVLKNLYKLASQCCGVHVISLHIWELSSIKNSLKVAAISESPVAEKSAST
pIC50: −log10 of the molar value.
measurement-type: pIC50

[[record]]
molecule_smiles = "Cc1c(-c2ccccc2)nc2ccc(C(C)(C)C)cc2c1C(=O)NC12CCC(C(=O)O)(CC1)CC2"
number = 6.34


Data credit: ChEMBL document CHEMBL5725856
